# Test system: Staphylococcus aureus
# run_description: Antibacterial activity against Staphylococcus aureus K1902 bearing norA-deficient mutation by M7-A7 CLSI microdilution method
# Type: functional
assay_endpoint: MIC (µg/mL)
Your answer is read as µg/mL, so omit the unit and give the number.

*Q* Hello, I am looking for reported MIC with Staphylococcus aureus for "CCN(CC)CCOc1cc(-c2ccc(OCCN3CCCCC3)cc2)nc2ccccc12" . Could you help?
*A* 100

*Q* Hello, I am looking for reported MIC with Staphylococcus aureus for "CCCOc1ccc(-c2cc(OCCN(CC)CC)c3ccccc3n2)cc1" . Could you help?
*A* 50

*Q* Hello, I am looking for reported MIC with Staphylococcus aureus for "CCCOc1ccc(-c2cc(OCCN3CCCCC3)c3ccccc3n2)cc1" . Could you help?
*A* 50

---

# target_or_test_system: Quinolone resistance protein NorA (Staphylococcus aureus) (UniProt P0A0J7)
# Sequence (whole entry): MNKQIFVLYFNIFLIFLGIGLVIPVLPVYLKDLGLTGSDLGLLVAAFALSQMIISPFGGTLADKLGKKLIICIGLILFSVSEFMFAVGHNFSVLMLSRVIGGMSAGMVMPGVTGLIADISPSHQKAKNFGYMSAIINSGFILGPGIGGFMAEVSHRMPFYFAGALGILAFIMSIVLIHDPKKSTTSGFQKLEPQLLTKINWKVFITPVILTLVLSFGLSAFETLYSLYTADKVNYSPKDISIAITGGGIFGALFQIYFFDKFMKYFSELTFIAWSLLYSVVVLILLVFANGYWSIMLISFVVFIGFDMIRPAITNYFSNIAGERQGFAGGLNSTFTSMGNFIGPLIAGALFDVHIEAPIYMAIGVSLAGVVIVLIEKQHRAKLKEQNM
# run_description: Inhibition of NorA in Staphylococcus aureus 1199B assessed as inhibition of ethidium bromide efflux at 50 uM by fluorimetry
assay_endpoint: inhibition (%)
Your answer is read as %, so omit the unit and give the number.

*Q* I am curious: what inhibition value has been reported for "CCCOc1ccc(-c2cc(=O)c3cc(OC)c(OC)cc3n2C)cc1" ?
*A* 0

*Q* I am curious: what inhibition value has been reported for Fc1ccc([C@@H]2CCNC[C@H]2COc2ccc3c(c2)OCO3)cc1 [PAROXETINE] ?
*A* 89.7

*Q* I am curious: what inhibition value has been reported for "CCCOc1ccc(-c2cc(OC)c3ccccc3n2)cc1" ?
*A* 63.7

*Q* I am curious: what inhibition value has been reported for "COc1cc2c(=O)cc(-c3ccc(O)cc3)n(C)c2cc1OC" ?
*A* 0

*Q* I am curious: what inhibition value has been reported for "Cn1c(-c2ccc(O)cc2)cc(=O)c2cc(O)c(O)cc21" ?
*A* 0

---

# Tested on: Staphylococcus aureus
# run_description: Antibacterial activity against wild-type Staphylococcus aureus ATCC 25923 by M7-A7 CLSI microdilution method
# Type: functional
assay_endpoint: MIC (µg/mL)
Your answer is read as µg/mL, so omit the unit and give the number.

Some compounds with known MIC results, for comparison:
- cpd_smiles: "CCCOc1ccc(-c2cc(OCCN3CCCCC3)c3ccccc3n2)cc1"
  MIC (µg/mL): 100
- cpd_smiles: "CCN(CC)CCOc1cc(-c2ccc(OCCN3CCCCC3)cc2)nc2ccccc12"
  MIC (µg/mL): 100

Turning now to a further record.
*Q* I am curious: what MIC value has been reported for "CCCOc1ccc(-c2cc(OCCN(CC)CC)c3ccccc3n2)cc1" ?
*A* 100

---

# System: Staphylococcus aureus
# run_description: Antibacterial activity against wild-type norA expressing Staphylococcus aureus 1199 by M7-A7 CLSI microdilution method
# Format: functional
assay_endpoint: MIC

Some compounds with known MIC results, for comparison:
- compound: "COC(=O)[C@H]1[C@H]2C[C@@H]3c4[nH]c5cc(OC)ccc5c4CCN3C[C@H]2C[C@@H](OC(=O)c2cc(OC)c(OC)c(OC)c2)[C@@H]1OC [RESERPINE]"
  assay_endpoint: "MIC"
  recorded_result: "> 100 µg/mL"
- compound: "Fc1ccc([C@@H]2CCNC[C@H]2COc2ccc3c(c2)OCO3)cc1 [PAROXETINE]"
  assay_endpoint: "MIC"
  recorded_result: "> 100 µg/mL"
- compound: "CCN(CC)CCOc1cc(-c2ccc(OCCN3CCCCC3)cc2)nc2ccccc12"
  assay_endpoint: "MIC"
  recorded_result: "> 100 µg/mL"

*Q* I am curious: what MIC value has been reported for "CCCOc1ccc(-c2cc(OCCN(CC)CC)c3ccccc3n2)cc1" ?
*A* > 100 µg/mL

*Q* I am curious: what MIC value has been reported for "CCCOc1ccc(-c2cc(=O)c3ccccc3n2CCN2CCCCC2)cc1" ?
*A* > 100 µg/mL

*Q* I am curious: what MIC value has been reported for "CCCOc1ccc(-c2cc(OCCN3CCCCC3)c3ccccc3n2)cc1" ?
*A* 100 µg/mL

---

# Tested on: Staphylococcus aureus
# run_description: Antibacterial activity against Staphylococcus aureus K1902 bearing norA-deficient mutation by M7-A7 CLSI microdilution method
# Format: functional
assay_endpoint: MIC

- cpd_smiles: "COC(=O)[C@H]1[C@H]2C[C@@H]3c4[nH]c5cc(OC)ccc5c4CCN3C[C@H]2C[C@@H](OC(=O)c2cc(OC)c(OC)c(OC)c2)[C@@H]1OC"
  target_or_test_system: "Staphylococcus aureus"
  recorded_result: "> 100 µg/mL"
- cpd_smiles: "Fc1ccc([C@@H]2CCNC[C@H]2COc2ccc3c(c2)OCO3)cc1"
  target_or_test_system: "Staphylococcus aureus"
  recorded_result: "> 100 µg/mL"

Turning now to a further record.
*Q* I am curious: what MIC value has been reported for "CCCOc1ccc(-c2cc(=O)c3ccccc3n2CCN2CCCCC2)cc1" ?
*A* > 100 µg/mL

---

Reported inhibition values for a set of compounds
# target_or_test_system: Quinolone resistance protein NorA (Staphylococcus aureus)
# Sequence (whole entry): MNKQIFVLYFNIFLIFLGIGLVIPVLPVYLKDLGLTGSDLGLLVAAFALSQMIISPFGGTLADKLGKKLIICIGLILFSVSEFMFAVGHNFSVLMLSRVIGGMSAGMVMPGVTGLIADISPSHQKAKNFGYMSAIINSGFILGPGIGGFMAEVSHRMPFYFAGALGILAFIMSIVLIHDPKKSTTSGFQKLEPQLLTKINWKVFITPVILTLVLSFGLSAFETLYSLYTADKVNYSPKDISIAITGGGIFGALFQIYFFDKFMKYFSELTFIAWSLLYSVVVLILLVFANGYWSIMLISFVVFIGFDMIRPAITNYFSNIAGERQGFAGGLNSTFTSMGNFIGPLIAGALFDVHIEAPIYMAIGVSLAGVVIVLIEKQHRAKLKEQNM
# run_description: Inhibition of NorA in Staphylococcus aureus 1199B assessed as inhibition of ethidium bromide efflux at 50 uM by fluorimetry
Your answer is read as %, so omit the unit and give the number.

Some compounds with known inhibition results, for comparison:
- cpd_smiles: "Cn1c(-c2ccccc2)cc(=O)c2cc(O)c(O)cc21"
  target_or_test_system: "Quinolone resistance protein NorA (Staphylococcus aureus)"
  assay_endpoint: "inhibition"
  recorded_result: 0
- cpd_smiles: "CCCOc1ccc(-c2cc(O)c3ccccc3n2)cc1"
  target_or_test_system: "Quinolone resistance protein NorA (Staphylococcus aureus)"
  assay_endpoint: "inhibition"
  recorded_result: 0
- cpd_smiles: "Cn1c(-c2ccc(O)cc2)cc(=O)c2ccccc21"
  target_or_test_system: "Quinolone resistance protein NorA (Staphylococcus aureus)"
  assay_endpoint: "inhibition"
  recorded_result: 0
- cpd_smiles: "CCCOc1ccc(-c2cc(=O)c3ccccc3n2C)cc1"
  target_or_test_system: "Quinolone resistance protein NorA (Staphylococcus aureus)"
  assay_endpoint: "inhibition"
  recorded_result: 33.9
- cpd_smiles: "Cn1c(-c2ccc(OCCN3CCOCC3)cc2)cc(=O)c2ccccc21"
  target_or_test_system: "Quinolone resistance protein NorA (Staphylococcus aureus)"
  assay_endpoint: "inhibition"
  recorded_result: 0

Turning now to a further record.
*Q* Hello, I am looking for reported inhibition with Quinolone resistance protein NorA (Staphylococcus aureus) for "COc1ccc(-c2cc(=O)c3ccccc3n2C)cc1" . Could you help?
*A* 0

---

# System: Staphylococcus aureus
# run_description: Antibacterial activity against wild-type Staphylococcus aureus ATCC 25923 by M7-A7 CLSI microdilution method
# Type: functional
Reported MIC values for a set of compounds

- cpd_smiles: "CCCOc1ccc(-c2cc(=O)c3ccccc3n2CCN2CCCCC2)cc1"
  MIC: "> 100 µg/mL"

*Q* Hello, I am looking for reported MIC with Staphylococcus aureus for "COC(=O)[C@H]1[C@H]2C[C@@H]3c4[nH]c5cc(OC)ccc5c4CCN3C[C@H]2C[C@@H](OC(=O)c2cc(OC)c(OC)c(OC)c2)[C@@H]1OC" . Could you help?
*A* > 100 µg/mL

*Q* Hello, I am looking for reported MIC with Staphylococcus aureus for "Fc1ccc([C@@H]2CCNC[C@H]2COc2ccc3c(c2)OCO3)cc1" . Could you help?
*A* > 100 µg/mL
